Assay: APR_HepG2_MicrotubuleCSK_72hr: Apredica 72-hour HepG2 Assay for Microtubule CSK Stabilty (AID 2282919)
Conditions: HepG2 microtubule cytoskeleton, high-content imaging, actives raise or lower the signal
Activity calls are given as the source filed them. The calls were made as follows: active = hit-call score of the fitted dose curve at least 0.9, where 1 is the maximum; inactive = score below 0.9.
Respond with a class label; see yes (active), no (inactive)

query: Could you please tell me the result logged for Cc1ccc(C(C)(C)C)c(O)c1 in this assay?
result: no

query: What did the test return for Cc1cc(Cc2ccc(N)c(C)c2)ccc1N ?
result: no

query: Short answer needed: outcome of this test for O=C(O)CC(O)(CC(=O)O)C(=O)O ?
result: no

* * *

Experiment: APR_HepG2_p53Act_24hr: Apredica 24-hour HepG2 Assay for p53 Activation (AID 2282913);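 also: p53 protein immunofluorescence averaged per cell in HepG2 with Hoechst nuclei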
Conditions: high-content imaging, actives raise or lower the signal
Activity calls are given as the source filed them. The calls were made as follows: active = hit-call score of the fitted dose curve at least 0.9, where 1 is the maximum; inactive = score below 0.9.
Choose one outcome from this list and give only that: label 1 for active, label 0 for inactive

C=CCc1ccc(OC)c(OC)c1: label 0
CC(C)(C)c1ccccc1: label 0
COc1ccc(C(=O)Nc2nc3ccccc3c(NCc3ccccc3)c2C#N)cc1: label 1
Cc1c(C)c2c(c(C)c1O)CCC(C)(COc1ccc(CC3SC(=O)NC3=O)cc1)O2 (stereo unspecified): label 0
C=CCCCCCCCCCCCC: label 1

query: Give the logged outcome of this assay for the following compound: COC(=O)CCCC(=O)OC
result: label 0

query: Call for entry Cc1cc(SC2=C(O)C[C@@](CCc3ccc(N)cc3)(C(C)C)OC2=O)c(C(C)(C)C)cc1CO :
result: label 0

query: Field: outcome | Entry: Nc1nc(Cl)nc2c1ncn2[C@H]1C[C@H](O)[C@@H](CO)O1
result: label 1

* * *

Experiment: STM_H9_OrnCyssISnorm_ratio: Stemina devTOX quickPredict H9 human embryonic stem cell (hESC)-based Assay for Ornithine (ORN):Cystine (CYSS) Ratio (AID 2283714)
Inconclusive results are not listed. The source made the active and inactive calls. How the source made its calls: active means hit-call score of the fitted dose curve at least 0.9, where 1 is the maximum; inconclusive means response in the unintended direction; inactive means score below 0.9.
Classes to choose from: active, inactive

Solved entries:
Cc1cc(Cc2ccc(N)c(C)c2)ccc1N: inactive
CCCCC(CC)COP(=O)(OCC(CC)CCCC)OCC(CC)CCCC (centres undefined): inactive
CN(C)CCCN1c2ccccc2Sc2ccc(Cl)cc21: active
CCCC[C@H]1CN(CC2CCOCC2)C(=O)OC12CCN(C1(C)CCN(C(=O)c3c(C)ncnc3C)CC1)CC2: inactive
CC(=O)[C@@]1(O)CC[C@H]2[C@@H]3CCC4=CC(=O)CC[C@]4(C)[C@H]3CC[C@@]21C: active
Nc1nc(Cl)nc2c1ncn2[C@H]1C[C@H](O)[C@@H](CO)O1: active

query: Just curious, what result did Cc1cn([C@H]2C=C[C@@H](CO)O2)c(=O)[nH]c1=O get here?
result: inactive

query: Look up the recorded call for O=C(O)c1cccnc1 in this test.
result: inactive

query: Write down the call the test reported for this molecule. Item: O=C1NC(=O)C(c2ccccc2)(c2ccccc2)N1
result: inactive

* * *

Molecular target: Retinoic acid receptor RXR-alpha (Homo sapiens) (UniProt P19793)
Sequence (P19793 whole entry, looked up): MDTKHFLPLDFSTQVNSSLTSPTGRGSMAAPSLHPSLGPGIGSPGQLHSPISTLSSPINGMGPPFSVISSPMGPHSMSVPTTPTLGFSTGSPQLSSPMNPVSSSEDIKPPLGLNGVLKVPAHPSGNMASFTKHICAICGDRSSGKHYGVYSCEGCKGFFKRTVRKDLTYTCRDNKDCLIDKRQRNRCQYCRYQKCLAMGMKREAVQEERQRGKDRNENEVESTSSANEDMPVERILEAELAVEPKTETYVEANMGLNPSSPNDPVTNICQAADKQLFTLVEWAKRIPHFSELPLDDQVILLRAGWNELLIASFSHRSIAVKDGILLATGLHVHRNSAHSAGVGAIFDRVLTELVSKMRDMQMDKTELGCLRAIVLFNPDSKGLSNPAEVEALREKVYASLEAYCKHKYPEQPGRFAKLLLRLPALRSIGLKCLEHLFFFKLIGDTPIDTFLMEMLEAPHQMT
Assay: OT_NURR1_NURR1RXRa_0480: Odyssey Thera (OT) 8-hour HEK293T Protein Complementation Assay for Nurr1/retinoid X receptor (RXR) (AID 2283385)
Results filed as inconclusive are left out. The source made the active and inactive calls. How the source made its calls: active means hit-call score of the fitted dose curve at least 0.9, where 1 is the maximum; inconclusive means response in the unintended direction; inactive means score below 0.9.
Log the outcome using a class from y (active), n (inactive)

Examples with answers:
CC(=O)S[C@H](C(=O)N[C@H]1Cc2ccccc2[C@H]2CCC[C@@H](C(=O)O)N2C1=O)C(C)C: n
CN(C)CCCN(C)CCCN(C)C: n
CCCCCCCC(=O)OC: n
Oc1ccccc1O: n
CC(C)NCC(O)c1ccc(O)c(O)c1 (configuration not stated): y

query: Recorded test call requested for Cn1cnc2c1c(=O)[nH]c(=O)n2C
result: n

query: Which result was noted for this compound in the test: CC(C)c1cccc(C(C)C)c1NC(=O)NS(=O)(=O)c1cc(C(C)(C)O)co1
result: n

query: Which outcome was assigned to CC(C)COC(=O)CCCCC(=O)OCC(C)C in this test?
result: n

query: Record lookup: outcome of this test for CC1=C(C)S(=O)(=O)CCS1(=O)=O ?
result: n

query: Recorded call for O=C1c2c(O)cccc2Cc2cccc(O)c21 ?
result: n

query: Record request — test call for CO[C@@H]1COCC[C@@H]1N[C@@H]1CC[C@@](C(=O)N2CCc3ncc(C(F)(F)F)cc3C2)(C(C)C)C1
result: n

query: Call for entry O=C1NC(=O)C(c2ccccc2)(c2ccccc2)N1 :
result: n

* * *

Assay: BSK_LPS_SRB: Viability Assessment in the BioMAP Diversity Plus: LPS Assay (AID 2283079);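 also: total protein by sulforhodamine B absorbance as a cytotoxicity measure; measured one day after compound addition; fitted in both directions against DMSO so loss or gain of signal counts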
Conditions: primary human HUVEC with PBMC
Activity calls are given as the source filed them. How the source made its calls: active means hit-call score of the fitted dose curve at least 0.9, where 1 is the maximum; inactive means score below 0.9.
Permitted responses: active, inactive

Previously resolved entries follow.
CCOCCOCCO: inactive
CC(=O)O[C@]1(C(C)=O)CC[C@H]2[C@@H]3C=C(Cl)C4=CC(=O)[C@@H]5C[C@@H]5[C@]4(C)[C@H]3CC[C@@]21C: active
CC(C)COC(=O)CCCCC(=O)OCC(C)C: inactive

query: Test call for this molecule, please: CCCCC(CC)CO (configuration not stated)
result: inactive

query: Status in this test for CCC(C)N(C)C(=O)c1cc2ccccc2c(-c2ccccc2Cl)n1 (configuration not stated) ?
result: inactive

query: Returns: the outcome recorded for CCCCCCC(C=O)=Cc1ccccc1 in this assay.
result: active

query: Look up the recorded call for O=C1NC(=O)C(c2ccccc2)(c2ccccc2)N1 in this test.
result: inactive

query: Dear colleague, could you share the recorded outcome for Oc1ccccc1O when you have a moment?
result: active

query: Can you look up the reported call for CC(C)(O)c1ccc(CNC(=O)c2cccnc2Oc2ccc(F)cc2)cc1 for me?
result: inactive

* * *

Target: human Vitamin D Receptor (VDR), VDR (gene 7421)
Assay: ATG_VDR_TRANS: Attagene TRANS-FACTORIAL HepG2 Assay for human Vitamin D Receptor (VDR) (AID 2283022)
Results filed as inconclusive are left out. Calls of active or inactive are those of the source. How the source made its calls: active means hit-call score of the fitted dose curve at least 0.9, where 1 is the maximum; inconclusive means response in the unintended direction; inactive means score below 0.9.
METRIC: outcome

Here is how some compounds turned out for outcome.
CCc1cc(C2=C(C(=O)O)N(c3ccccc3C(F)(F)F)S(=O)(=O)c3ccccc32)cc2c1OCO2: inactive
CC(C)OC(=O)C(C)(C)Oc1ccc(C(=O)c2ccc(Cl)cc2)cc1: inactive
CC(=O)OCC(COC(C)=O)OC(C)=O: inactive
CCCCCCCC(=O)OC: inactive
CC(=O)[C@@]1(O)CC[C@H]2[C@@H]3CCC4=CC(=O)CC[C@]4(C)[C@H]3CC[C@@]21C: inactive

Go through the list and state outcome for each entry.
1. CCCC(=O)O
2. CCCCC(CC)CO (configuration not stated)
3. O=C(NS(=O)(=O)/C=C/c1cccs1)c1ccc(F)cc1Br
4. O=NO
5. NCCOCCOCCN
6. O=C(O)CN(CC(=O)O)CC(=O)O
7. O=C(O)c1[nH]n(-c2ccc(S(=O)(=O)O)cc2)c(=O)c1N=Nc1ccc(S(=O)(=O)O)cc1

result:
1: inactive; 2: inactive; 3: inactive; 4: inactive; 5: inactive; 6: inactive; 7: inactive

Can you give me outcome for all of these, one by one?
1. Cc1cc(SC2=C(O)C[C@@](CCc3ccc(N)cc3)(C(C)C)OC2=O)c(C(C)(C)C)cc1CO
2. CCc1nc(N)nc(N)c1-c1ccc(Cl)cc1
3. S=c1[nH]c2ccccc2s1
4. CCCCCCC(CCCCCCCCCCC(=O)OCC(COC(C)=O)OC(C)=O)OC(C)=O (configuration not stated)

result:
1. inactive
2. inactive
3. inactive
4. inactive

Please state, for each entry, its recorded outcome.
1. Oc1ccc(O)cc1
2. CS(=O)(=O)c1ccc([C@@H](C[C@H]2CCC(=O)C2)C(=O)Nc2cnccn2)cc1Cl
3. CCN(CC)CCOc1ccc(C(=C(Cl)c2ccccc2)c2ccccc2)cc1
4. O=C1CCCCC1
5. Cc1occc(=O)c1O
6. CCCCCCC(C=O)=Cc1ccccc1

result:
["inactive", "inactive", "inactive", "inactive", "inactive", "inactive"]

Would you be so kind as to report outcome for each listed record?
1. CCCCC(CC)COP(=O)(OCC(CC)CCCC)OCC(CC)CCCC (configuration not stated)
2. CCC(C)N(C)C(=O)c1cc2ccccc2c(-c2ccccc2Cl)n1 (configuration not stated)
3. CC(=O)CC(c1ccccc1)c1c(O)c2ccccc2oc1=O (configuration not stated)
4. CC(COCC(C)OC(=O)c1ccccc1)OC(=O)c1ccccc1 (configuration not stated)
5. CCCCOC(=O)CCCCC(=O)OCCCC

result:
1: inactive; 2: inactive; 3: inactive; 4: inactive; 5: inactive

* * *

Biological target: human Dopamine Receptor D2 (DRD2), DRD2 (gene 1813)
Assay: NVS_GPCR_hDRD2s: NovaScreen (NVS) G Protein-Coupled Receptor Assay for human Dopamine Receptor D2 (DRD2) (AID 2283266)
Protocol: NVS_GPCR_hDRD2s is a biochemical, single-readout assay that uses extracted gene-proteins from CHO in a cell-free assay. Measurements were taken 1.5 hours after chemical dosing in a 96-well plate.NVS_GPCR_hDRD2s is one of one assay component(s) measured or calculated from the NVS_GPCR_hDRD2s assay. […] This assay endpoint, NVS_GPCR_hDRD2s, was analyzed in the positive analysis fitting direction relative to DMSO as the negative control and baseline of activity. […]
Inconclusive results are not listed. Active and inactive are the calls of the source. How the source made its calls: active means hit-call score of the fitted dose curve at least 0.9, where 1 is the maximum; inconclusive means response in the unintended direction; inactive means score below 0.9.
METRIC: AC50

CN(C)C(=O)NC1(c2ccccc2)CCN(CCC[C@]2(c3ccc(Cl)c(Cl)c3)CCCN(C(=O)c3ccccc3)C2)CC1: 4 µM (active)
CSc1ccc(Oc2ccc(S(N)(=O)=O)cc2CN(C)C)cc1C: 15 µM (active)
Cc1c(C)c2c(c(C)c1O)CCC(C)(COc1ccc(CC3SC(=O)NC3=O)cc1)O2 (configuration not stated): inactive
Cc1cc(SC2=C(O)C[C@@](CCc3ccc(N)cc3)(C(C)C)OC2=O)c(C(C)(C)C)cc1CO: inactive

Please give AC50, item by item, for the list that follows.
1. O=C(N[C@@H](c1ccccc1)[C@@H]1CCCCN1)c1cccc(C(F)(F)F)c1Cl
2. CCCCCCCCCCCCCCOS(=O)(=O)O
3. CN(C)C(=O)NC1(c2ccccc2)CCN(CC[C@@]2(c3ccc(F)c(F)c3)CN(C(=O)c3ccccc3)CCO2)CC1

result:
inactive
15.1 µM (active)
inactive
